Tested on: SUIT-2 (Pancreatic Carcinoma);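 further: after 72 h of two-drug dosing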
procedure.summary: Bliss excess, mean over the matrix (fraction); higher = more synergy
value.type: Bliss excess
Reply with just the number.

What value of measured Bliss excess is listed for CCN(CCO)CCCOc1ccc2c(Nc3cc(CC(=O)Nc4cccc(F)c4)[nH]n3)ncnc2c1 [AZD2811] + C=CCn1c(=O)c2cnc(Nc3ccc(N4CCN(C)CC4)cc3)nc2n1-c1cccc(C(C)(C)O)n1 [AZD1775] (first compound max 1 µM, partner max 1 µM) ?
-0.017

Bliss excess lookup needed for CN(CCO)CC[C@H](CSc1ccccc1)Nc1ccc(S(=O)(=O)NC(=O)c2ccc(N3CCC([C@@H](O)c4ccccc4-c4ccc(Cl)cc4)CC3)cc2)cc1S(=O)(=O)C(F)(F)F [AZD4320] + C=CCn1c(=O)c2cnc(Nc3ccc(N4CCN(C)CC4)cc3)nc2n1-c1cccc(C(C)(C)O)n1 [AZD1775] (first compound max 1 µM, partner max 1 µM) , thanks.
-0.0088

If you can, please state the reported Bliss excess value of CN(C)CCCOc1ccc(-c2ccc3ncc4c(c3c2)n(C2CCOCC2)c(=O)n4C)cn1 [AZD0156] + O=C(c1cc(Cc2n[nH]c(=O)c3ccccc23)ccc1F)N1CCN(C(=O)C2CC2)CC1 [Olaparib] (first compound max 3 µM, partner max 3 µM) .
0.028

Consider the compound NC1(C(=O)N[C@@H](CCO)c2ccc(Cl)cc2)CCN(c2ncnc3[nH]ccc23)CC1 [Capivasertib] + C[C@@H]1COCCN1C2=NC(=NC(=C2)C3(CC3)[S@](=N)(=O)C)C4=C5C=CNC5=NC=C4 [AZD6738] (first compound max 10 µM, 7x7, partner max 10 µM) and give its measured Bliss excess.
-0.0351

Quick check: Bliss excess of NC1(C(=O)N[C@@H](CCO)c2ccc(Cl)cc2)CCN(c2ncnc3[nH]ccc23)CC1 [Capivasertib] + COc1nnc2ccc(N3CCC(c4ccc(OCCN5CCN(C)C(=O)[C@H]5C)cc4)CC3)nn12 [AZD5153] (first compound max 10 µM, 7x7, partner max 1 µM) ?
0.0367

If you can, please state the reported Bliss excess value of Cc1cc2ncnn2cc1Nc1ncc2c(n1)n(C1CCOCC1)c(=O)n2C [AZD7648] + C=CCn1c(=O)c2cnc(Nc3ccc(N4CCN(C)CC4)cc3)nc2n1-c1cccc(C(C)(C)O)n1 [AZD1775] (first compound max 10 µM, partner max 1 µM) .
-0.0403

So what does the record say about Bliss excess for NC1(C(=O)N[C@@H](CCO)c2ccc(Cl)cc2)CCN(c2ncnc3[nH]ccc23)CC1 [Capivasertib] + CC(C)n1c(=O)n(C)c2cnc3cc(F)c(-c4ccc(OCCCN5CCCCC5)nc4)cc3c21 [AZD1390] (first compound max 10 µM, 7x7, partner max 0.3 µM) ?
-0.0441

Find the recorded Bliss excess belonging to CCc1c2c(nc3ccc(O)cc13)-c1cc3c(c(=O)n1C2)COC(=O)[C@]3(O)CC [SN-38] + O=C(c1cc(Cc2n[nH]c(=O)c3ccccc23)ccc1F)N1CCN(C(=O)C2CC2)CC1 [Olaparib] (first compound max 0.3 µM, 7x7, partner max 10 µM) and report it.
-0.0211

So what's the measured Bliss excess for this one? CN(C)CCCOc1ccc(-c2ccc3ncc4c(c3c2)n(C2CCOCC2)c(=O)n4C)cn1 [AZD0156] + CCN(CCO)CCCOc1ccc2c(Nc3cc(CC(=O)Nc4cccc(F)c4)[nH]n3)ncnc2c1 [AZD2811] (first compound max 1 µM, 7x7, partner max 1 µM)
-0.0029

For NC1(C(=O)N[C@@H](CCO)c2ccc(Cl)cc2)CCN(c2ncnc3[nH]ccc23)CC1 [Capivasertib] + Cn1cnc2c(F)c(Nc3ccc(Br)cc3Cl)c(C(=O)NOCCO)cc21 [Selumetinib] (first compound max 10 µM, 7x7, partner max 10 µM) , what is its reported Bliss excess?
-0.0181

Entry COc1cc2c(cc1OCCCCCOc1cc3c(cc1OC)C(=O)N1C=C(C)C[C@H]1C=N3)N=C[C@@H]1CC(C)=CN1C2=O [SG3199] + O=C(c1cc(Cc2n[nH]c(=O)c3ccccc23)ccc1F)N1CCN(C(=O)C2CC2)CC1 [Olaparib] (first compound max 0.001 µM, 7x7, partner max 10 µM) : reported Bliss excess = ?
-0.0029

Look at this compound and give its reported Bliss excess. CC1(C)CCC(CN2CCN(c3ccc(C(=O)NS(=O)(=O)c4ccc(NCC5CCOCC5)c([N+](=O)[O-])c4)c(Oc4cnc5[nH]ccc5c4)c3)CC2)=C(c2ccc(Cl)cc2)C1 [Venetoclax] + COc1cc(Nc2ncc3c(n2)-c2ccc(Cl)cc2C(c2c(F)cccc2OC)=NC3)ccc1C(=O)O [Alisertib] (first compound max 1 µM, 7x7, partner max 10 µM)
-0.0515

Can you look up the measured Bliss excess of Cc1c2c(nn1C)CSCc1cc(n(C)n1)CSc1cc(c3ccccc3c1)OCCCc1c(C(=O)O)n(C)c3c-2c(Cl)ccc13 [AZD5991] + C[C@@H]1COCCN1C2=NC(=NC(=C2)C3(CC3)[S@](=N)(=O)C)C4=C5C=CNC5=NC=C4 [AZD6738] (first compound max 1 µM, 7x7, partner max 10 µM) for me?
-0.0025

The measurements presented in this section are drawn from the supplement of paper PMC11061612.
